Test system: ATP;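 further: ATP exposure 15 min at 22 °C before imaging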
Test: switch fluorescence ratio, 500 uM ATP over buffer (Cy3 cluster intensity, sum of 5 cycles each) (fold (ratio)); higher = stronger signal-on switching upon ATP binding; sequences stand for … in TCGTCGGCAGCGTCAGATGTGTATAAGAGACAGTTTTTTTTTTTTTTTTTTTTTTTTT…TC
Conditions: aptamer strand: ATP DNA aptamer (quencher-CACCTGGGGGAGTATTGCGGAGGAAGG + anchor), 100 nM annealed; ATP concentration: 500 uM
VALUE_TYPE: switch fluorescence ratio
Answers are plain numbers.

- TTGTGCGCGC: 1.02
- TAGATTTCTG: 0.989
- TGTAGGAGTG: 1.25

// for each sequence below, give its switch fluorescence ratio
1. ATATTACTGC
2. ATATACTAAT
3. TTACATGATG
4. ACTAGAAGAT
5. GGGGGGATAG
6. TCCCATGTTT
7. TGAACCGCGA

Result block:
[1.07, 1.02, 1.01, 0.983, 1, 0.963, 2.96]

Reference source: the supplement of paper PMC10126150
